The entries below come with measured Dose values attached.
# Test system: Mus musculus
# measurement.notes: Lowest daily intraperitoneal dose causing hypervitaminosis A symptoms was determined in a 2-week period in mice
# Format: functional
Answer in mg/kg, number only, no unit symbol.

In the examples that follow, each entry is paired with its recorded Dose.
> print(dat)
                                   compound  endpoint.label  unit.text  data.value
1  CCOC(=O)/C=C(C)/C=C/C=C(C)/C=C/c1c(C)sc(C)c1C            Dose      mg/kg         200
2  CCOC(=O)c1ccc(/C=C(\C)c2ccc3c(c2)C(C)(C)CCC3(C)C)cc1            Dose      mg/kg         0.1
3  COc1cc(C)c(/C=C/C(C)=C/C=C(F)/C(C)=C/C(=O)O)c(C)c1C            Dose      mg/kg          25
4  CC1=C(/C=C/C(C)=C/C=C/C(C)=C/C(=O)O)C(C)(C)CCC1            Dose      mg/kg          80
5  CC1=C(/C=C/C(C)=C/C=C/C(C)=C\C(=O)O)C(C)(C)CCC1            Dose      mg/kg         400

Need Dose, item CCOC(=O)/C=C(C)/C=C/C=C(C)/C=C/c1c(Cl)cc(OC)c(C)c1Cl
12

Need Dose, item CCOC(=O)/C=C(C)/C=C/C=C(C)/C=C/c1c(C)cc(OC)c(C)c1C [ETRETINATE]
50
